The entries below are paired with their reported % Blocking.
Target entity: T1, human CCR8 (human, UniProt P51685 1-355)
T1 construct: Native CCR8 on human PBMC (CCR8+ CD3+ or CCR8+ CD4+ lymphocytes); also called chemokine (C-C motif) receptor 8
T1 sequence (P51685 whole entry): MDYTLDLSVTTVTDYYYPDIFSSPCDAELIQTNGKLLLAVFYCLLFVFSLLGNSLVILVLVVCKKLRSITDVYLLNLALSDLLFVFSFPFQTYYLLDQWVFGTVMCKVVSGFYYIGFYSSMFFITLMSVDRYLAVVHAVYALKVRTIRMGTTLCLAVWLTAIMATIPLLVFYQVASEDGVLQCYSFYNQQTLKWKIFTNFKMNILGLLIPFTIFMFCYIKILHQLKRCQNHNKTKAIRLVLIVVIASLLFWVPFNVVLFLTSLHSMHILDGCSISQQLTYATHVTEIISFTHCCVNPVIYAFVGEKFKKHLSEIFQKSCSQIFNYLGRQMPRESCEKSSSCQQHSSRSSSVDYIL
Procedure summary: flow blocking, PBMC CCR8+CD3+; competitor PE-AB13
A number alone suffices; assume %.

Task: Name the reported % Blocking value associated with the binder AB5 (antibody, V domains shown, Hybridoma monoclonal; Same VH/VL entries as AB6; also called antibody 5; clone 5) VH: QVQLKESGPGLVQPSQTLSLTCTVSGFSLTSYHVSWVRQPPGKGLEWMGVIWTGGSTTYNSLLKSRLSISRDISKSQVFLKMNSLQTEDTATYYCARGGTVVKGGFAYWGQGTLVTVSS VL: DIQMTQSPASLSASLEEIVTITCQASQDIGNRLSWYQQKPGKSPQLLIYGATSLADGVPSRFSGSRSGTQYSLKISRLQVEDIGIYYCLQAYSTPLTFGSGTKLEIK
Output: -7.01

Task: Entry to check: AB10 (antibody, V domains shown, Hybridoma monoclonal; also called antibody 10; clone 10) VH: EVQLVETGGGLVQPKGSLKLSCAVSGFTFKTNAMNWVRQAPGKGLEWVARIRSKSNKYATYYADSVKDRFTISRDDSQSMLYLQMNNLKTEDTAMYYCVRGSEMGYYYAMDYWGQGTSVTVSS VL: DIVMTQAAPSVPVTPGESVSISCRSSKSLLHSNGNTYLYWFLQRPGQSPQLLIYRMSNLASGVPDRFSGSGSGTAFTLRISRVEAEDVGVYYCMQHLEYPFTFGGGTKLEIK
Output: 43.6

Task: Entry to check: AB13 (antibody, V domains shown, Hybridoma monoclonal; also called antibody 13; clone 13) VH: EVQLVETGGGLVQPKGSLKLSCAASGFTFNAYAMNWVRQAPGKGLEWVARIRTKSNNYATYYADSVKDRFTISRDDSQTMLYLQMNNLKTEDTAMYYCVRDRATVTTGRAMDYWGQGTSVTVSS VL: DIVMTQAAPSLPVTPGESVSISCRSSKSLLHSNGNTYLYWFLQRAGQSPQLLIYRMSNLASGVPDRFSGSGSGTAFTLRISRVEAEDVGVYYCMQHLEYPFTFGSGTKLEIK
Output: 24.6

Task: Entry to check: AB7 (antibody, V domains shown, Hybridoma monoclonal; also called antibody 7; clone 7) VH: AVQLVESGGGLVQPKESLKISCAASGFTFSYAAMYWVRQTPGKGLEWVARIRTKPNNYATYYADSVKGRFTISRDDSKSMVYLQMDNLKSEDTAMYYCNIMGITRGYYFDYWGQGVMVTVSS VL: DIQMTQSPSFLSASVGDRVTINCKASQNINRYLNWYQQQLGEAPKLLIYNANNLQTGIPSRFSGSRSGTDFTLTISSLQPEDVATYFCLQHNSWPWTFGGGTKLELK
Output: -0.34
